The values you see were collected from patent US10323012B2.

Test system: HIV/HA virions (H5N1 HA and NA)
methodDescription: in vitro
settings: human, Selective Index (CC50/IC50), anti-H5N1
quantityName: selectivity ratio
The answer should be written as a number, with no unit following it.

// selectivity ratio lookup, key: CO[C@@H]1CC(=O)C2(CC(=O)O[C@@H]2/C=C(\C)CCC=C(C)C)C[C@@H]1O (stereo partly shown)
9.5

----------
Test system: HIV/VSV-G virions
methodDescription: in vitro
settings: human
quantityName: selectivity ratio

Fill in the recorded selectivity ratio for this compound, with HIV/VSV-G virions as test system: CC(=O)O[C@@H]1CCC(=O)C2(CC(=O)O[C@@H]2/C=C(\C)CCC=C(C)C)C1 (stereo partly shown) [3,4-Dihydro-miliusate]
1
